// data source = ChEMBL document CHEMBL5303573

Conditions: bacteroides thetaiotaomicron, 12 h, 2 µM
Description: The drug is tested on Bacteroides thetaiotaomicron strain: VPI-5482 for biotransformation. The drug concentrations were measured before and after a 12-h incubation by liquid-chromatography-coupled mass spectrometry (LC–MS)
MEASURED_METRIC: Bacterial Biotransformation

// worked examples, Bacterial Biotransformation included
[
  {
    "MOLECULE": "Cc1ccc(S(=O)(=O)NC(=O)NN2CC3CCCC3C2)cc1 (stereo unspecified) [GLICLAZIDE]",
    "ENDPOINT_VALUE": "Compound NOT metabolized"
  },
  {
    "MOLECULE": "CS(=O)(=O)O.O.O.O.O=C1Cc2cc(CCN3CCN(c4nsc5ccccc45)CC3)c(Cl)cc2N1 [ZIPRASIDONE MESYLATE]",
    "ENDPOINT_VALUE": "Compound NOT metabolized"
  },
  {
    "MOLECULE": "COC(=O)Nc1nc2ccc(C(=O)c3ccccc3)cc2[nH]1 [MEBENDAZOLE]",
    "ENDPOINT_VALUE": "Compound metabolized"
  },
  {
    "MOLECULE": "CCN(CC)CCNC(=O)c1ccc(NC(C)=O)cc1 [ACECAINIDE]",
    "ENDPOINT_VALUE": "Compound NOT metabolized"
  },
  {
    "MOLECULE": "Cc1nc2n(c(=O)c1CCN1CCC(c3noc4cc(F)ccc34)CC1)CCCC2 [RISPERIDONE]",
    "ENDPOINT_VALUE": "Compound NOT metabolized"
  }
]

According to the records, this molecule CC(=O)Oc1ccc(C(c2ccc(OC(C)=O)cc2)c2ccccn2)cc1 [BISACODYL] displays Bacterial Biotransformation of Compound metabolized
